Values from ChEMBL document CHEMBL5537140

Biological target: Somatostatin receptor type 5 (Mus musculus)
Sequence (O08858 whole entry): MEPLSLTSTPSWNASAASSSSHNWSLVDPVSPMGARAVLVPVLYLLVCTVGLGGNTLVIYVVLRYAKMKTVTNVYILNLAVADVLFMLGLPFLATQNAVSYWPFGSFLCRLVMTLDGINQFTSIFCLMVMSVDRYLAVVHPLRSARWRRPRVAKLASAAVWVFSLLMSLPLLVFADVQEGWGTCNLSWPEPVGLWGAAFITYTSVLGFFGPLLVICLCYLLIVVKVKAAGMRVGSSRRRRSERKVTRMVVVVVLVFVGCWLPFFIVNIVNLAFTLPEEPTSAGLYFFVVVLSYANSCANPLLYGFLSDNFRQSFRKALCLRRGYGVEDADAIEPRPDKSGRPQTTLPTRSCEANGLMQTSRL
Assay: Antagonist activity at N-terminal HA-tagged mouse SSTR5 expressed in CHO cells assessed as change in intracellular […] level preincubated with agonist for 10 mins followed by compound addition by CRE-driven luciferase reporter based microplate reader
Measured metric: IC50 (nM)
Report only the number, with the unit nM understood.

Challenge: What does the record list as IC50 for `CCOc1cc(CN2CCC(F)(CNc3ccc(N)cc3)CC2)cc(OCC)c1-c1ccc(F)cc1` ?
Response given: 1770

Challenge: What does the record list as IC50 for `CCOc1cc(CN2CCC(F)(CNc3ccc(C(=O)O)c(C)c3)CC2)cc(OCC)c1-c1ccc(F)cc1` ?
Response given: 97.5

Challenge: What does the record list as IC50 for `CCOc1cc(CN2CCC(C)(COc3ccc(C(=O)O)cc3)CC2)cc(OCC)c1-c1ccc(F)cc1` ?
Response given: 1860

Challenge: What does the record list as IC50 for `CCOc1cc(CN2CCC(F)(CNc3ccc(C(=O)O)cc3Cl)CC2)cc(OCC)c1-c1ccc(F)cc1` ?
Response given: 132

Challenge: What does the record list as IC50 for `CCOc1cc(CN2CCC(F)(CNc3ccc(C(=O)O)cc3C)CC2)cc(OCC)c1-c1ccc(F)cc1` ?
Response given: 25.4

Challenge: What does the record list as IC50 for `CCOc1cc(CN2CCC(F)(CNc3ccc(C(=O)O)c(Cl)c3)CC2)cc(OCC)c1-c1ccc(F)cc1` ?
Response given: 42.2

Challenge: What does the record list as IC50 for `CCOc1cc(CN2CC(CNc3ccc(C(=O)O)cc3)C2)cc(OCC)c1-c1ccc(F)cc1` ?
Response given: 157

Challenge: What does the record list as IC50 for `CCOc1cc(CN2CCC(O)(Cc3ccc(C(=O)O)cc3)CC2)cc(OCC)c1-c1ccc(F)cc1` ?
Response given: 176

Challenge: What does the record list as IC50 for `CCOc1cc(CN2CCC(COc3ccc(C(=O)O)cc3)CC2)cc(OCC)c1-c1ccc(F)cc1` ?
Response given: 11.5

Challenge: What does the record list as IC50 for `CCOc1cc(CN2CCC(F)(CNc3ccc(C(=O)O)cc3OC)CC2)cc(OCC)c1-c1ccc(F)cc1` ?
Response given: 20.5

Challenge: What does the record list as IC50 for `CCOc1cc(CN2CCC(O)(COc3ccc(C(=O)O)cc3)CC2)cc(OCC)c1-c1ccc(F)cc1` ?
Response given: 51.1

Challenge: What does the record list as IC50 for `CCOc1cc(CN2CC(COc3ccc(C(=O)O)cc3)C2)cc(OCC)c1-c1ccc(F)cc1` ?
Response given: 394

Challenge: What does the record list as IC50 for `CCOc1cc(CN2CCC(Oc3ccc(C(=O)O)cc3)CC2)cc(OCC)c1-c1ccc(F)cc1` ?
Response given: 44.3

Challenge: What does the record list as IC50 for `CCOc1cc(CN2CCC(CNc3ccc(C(=O)O)cc3)CC2)cc(OCC)c1-c1ccc(F)cc1` ?
Response given: 91.7

Challenge: What does the record list as IC50 for `CCOc1cc(CN2CCC(O)(C(=O)Nc3ccc(C(=O)O)cc3)CC2)cc(OCC)c1-c1ccc(F)cc1` ?
Response given: 14700

Challenge: What does the record list as IC50 for `CCOc1cc(CN2CCC(F)(C(=O)Nc3ccc(C(=O)O)cc3)CC2)cc(OCC)c1-c1ccc(F)cc1` ?
Response given: 2560

Challenge: What does the record list as IC50 for `CCOc1cc(CN2CCC(F)(COc3ccc(C(=O)O)cc3)CC2)cc(OCC)c1-c1ccc(F)cc1` ?
Response given: 14.8

Challenge: What does the record list as IC50 for `CCOc1cc(CN2CCC(O)(CNc3ccc(C(=O)O)cc3)CC2)cc(OCC)c1-c1ccc(F)cc1` ?
Response given: 52
